Test system: HT29 colon
Assay: NCI-60 one-dose screen, 48 h
Details: 10 µM unless noted
The panel holds about 83,000 compounds, 20% with a hit somewhere; the sample as a whole holds those more often. Active and inactive are the calls of the source. Rule for the calls: active = growth percent below 10; inactive = the rest.
Can you answer with just one of these options? yes = active, no = inactive

>>> category("CCOC(=O)N1CCN(CCCCOc2ccc(C(C)(C)CC)cc2)CC1")
"no"

Prompt: Please let me know the test result on file for Cc1nn(-c2ccc(Br)cc2)c2nc3[nH]c(=O)[nH]c(=O)c3nc12 .
Response: no

Prompt: Please let me know the test result on file for CC(=O)O[C@H]1CC[C@]2(C)[C@H]3C(=O)C=C4[C@@H]5C[C@](C)(C(=O)N6CCCNCC6)CC[C@]5(C)CC[C@@]4(C)[C@]3(C)CC[C@H]2C1(C)C .
Response: yes

Prompt: Please let me know the test result on file for COc1ccc(NC(=O)c2ccoc2COc2ccccc2)cc1 .
Response: no

Prompt: Please let me know the test result on file for CCCCCCCCNc1cccc2c1C(=O)c1ccccc1C2=O .
Response: no

Prompt: Please let me know the test result on file for C[C@H]1[C@@H]2[C@H]3CC[C@@H]4[C@@]5(C)Cc6c([nH]c7ccccc67)C(C)(C)[C@@H]5CC[C@@]4(C)[C@]3(C)CC[C@]23CO[C@]1(C)[C@@H](C(=O)/C=C/c1ccccn1)C3 .
Response: no

* * *

Test system: NCI-H226 lung
Test: NCI-60 one-dose screen, 48 h
Details: 10 µM unless noted
This is part of a sample that, as a whole, favours compounds with a hit. Of some 83,000 tested, about 20% had one in any assay. Calls of active or inactive are those of the source. Rule for the calls: active = growth percent below 10; inactive = the rest.
Can you answer with just one of these options? TRUE for active, FALSE for inactive

>>> category("CC(=O)O[C@@H]1CCN2C(=O)N(C)c3ccccc3[C@@H]2C1")
"FALSE"
>>> category("O=S(=O)(NCCNc1cc(-c2cn(-c3ccccc3)nc2-c2cccc(O)c2)ccn1)c1ccc(C(F)(F)F)cc1")
"FALSE"
>>> category("COC(=O)[C@]12CC[C@@H](C)[C@H](C)[C@@H]1C1=CC[C@@H]3[C@@]4(C)CC(=O)[C@H](OC(=O)c5ccco5)[C@@]5(C)COC(=C45)C[C@@]3(C)[C@]1(C)CC2")
"FALSE"
>>> category("CC(=O)O[C@H]1CC[C@]2(C)[C@H]3CC=C4[C@@H]5[C@H](C)[C@@H](C)CC[C@]5(C(=O)NCCNCCNCCN)CC[C@@]4(C)[C@]3(C)CC[C@H]2C1(C)C")
"FALSE"
>>> category("Cn1cc(-c2csc(-c3cn(CCN)c4ccc(F)cc34)n2)c2cccnc21")
"FALSE"
>>> category("O=Cc1nc2ccccc2[nH]1")
"FALSE"

Prompt: Please let me know the test result on file for COc1cccc2c1C(=O)c1c(O)c3c(c(O)c1C2=O)C[C@@](O)(C(=O)CO)C[C@@H]3OC1C[C@H](N)[C@H](O)[C@H](C)O1 (some centres not stated) .
Response: TRUE

Prompt: Please let me know the test result on file for C#CCn1c2c(c3ccccc31)C[C@]1(C)[C@H]3CC[C@@H]4[C@@H]5C(=CCC[C@H]5C(=C)C)CC[C@@]4(C)[C@]3(C)CC[C@H]1C2(C)C .
Response: FALSE

Prompt: Please let me know the test result on file for O=C(Nc1ccc(/C=C2\SC(=O)N(Cc3ccc(OC(F)(F)F)cc3)C2=O)cc1)c1ccc(Cl)c([N+](=O)[O-])c1 .
Response: FALSE

Prompt: Please let me know the test result on file for CN(C)c1ccc(N)c2ccccc12 .
Response: FALSE

Prompt: Please let me know the test result on file for CCC1C(=O)COC1=O (configuration not stated) .
Response: FALSE

Prompt: Please let me know the test result on file for CCN1CCN(C(=O)[C@@]2(C)CC[C@]3(C)CC[C@]4(C)C(=CC(=O)[C@@H]5[C@@]6(C)CC[C@H](OCCC#N)C(C)(C)[C@@H]6CC[C@]54C)[C@@H]3C2)CC1 .
Response: FALSE

Prompt: Please let me know the test result on file for O=C(/C=C/c1cccc(O)c1)c1ccccc1O .
Response: FALSE

* * *

Test system: HOP-62 NSCLC
Assay: NCI-60 one-dose screen, 48 h (100 = growth as untreated, 0 = no growth, -100 = all killed)
Details: 10 µM unless noted
Compounds without any hit were thinned out: in the full panel of roughly 83,000, 20% have a hit.
MEASUREMENT LABEL: growth (%)
Answers are plain numbers, in %.

>>> reported("Cn1cc(-c2csc(-c3cn(CCNC(=O)OC(C)(C)C)c4ccc(F)cc34)n2)c2cccnc21")
65.7
>>> reported("COc1cc2c(cc1-c1c(C)noc1C)ncc1nc(C3CCC(F)(F)CC3)n([C@@H](C)COC(F)F)c12")
31.7

Field: growth. Fill in for each record below.
1. N#CC1=C(N)Oc2c(c(N)nn2-c2ccccc2)C1c1ccc(Cl)cc1 (stereo not drawn)
2. C=C(C)[C@@H]1CC[C@]2(C)CC[C@]3(C)[C@H](CC[C@@H]4[C@@]5(C)CCCNC(C)(C)[C@@H]5CC[C@]43C)[C@@H]12
3. COC1=C(Br)C(=O)C(OC)=C(Br)C1=O

Response:
1. 89.8
2. 101
3. 111

Field: growth. Fill in for each record below.
1. O=C1C=C(C(O)c2ccc(O)cc2)C(=O)c2ccccc21 (stereo not drawn)
2. Clc1ccc2[nH]cc(-c3nc(-c4c[nH]c5ncccc45)cs3)c2c1

Response:
[116, 54.1]

Field: growth. Fill in for each record below.
1. CC(=O)O[C@@H]1CCN2C(=O)N(C)c3ccccc3[C@@H]2C1
2. COc1cnc2c(c1)C(=O)c1c-2n(CCCNC(C)C)c(=O)c2cc([N+](=O)[O-])ccc12

Response:
1. 104
2. -53.2

Field: growth. Fill in for each record below.
1. CC1(C)CC[C@]2(C(=O)Nc3ccccn3)CC[C@]3(C)C(=CC[C@@H]4[C@@]5(C)C/C(=C/c6ccncc6)C(=O)C(C)(C)[C@@H]5CC[C@]43C)[C@@H]2C1
2. Cn1cc(-c2csc(-c3cn(C(=O)OC(C)(C)C)c4ccc(Br)cc34)n2)c2cccnc21
3. O=C1/C(=C\c2ccc(Br)o2)SC(=S)N1CCc1ccc(O)cc1
4. NC(=O)NCC1CCCCC1
5. COc1ccc(C2(Cl)c3ccccc3N(c3ccccc3)c3ccccc32)cc1
6. CC1(n2nnnc2N2CCCN(c3ncccc3N)CC2)CCC1
7. Fc1cccc(-c2[nH]nc3nc(Nc4cccnc4)sc23)c1

Response:
1: 70.9; 2: 99.2; 3: 83.5; 4: 112; 5: 8.43; 6: 99; 7: 55.4

* * *

System: ACHN renal
Assay: NCI-60 one-dose screen, 48 h (100 = growth as untreated, 0 = no growth, -100 = all killed)
Details: 10 µM unless noted
Compounds without any hit were thinned out: in the full panel of roughly 83,000, 20% have a hit. The source made the active and inactive calls. The calls were made as follows: active = growth percent below 10; inactive = the rest.
Give measured growth for each item. Keep answers brief.

The examples below pair each entry with its known result.
>>> reported("Brc1ccc2c(c1)c(-c1nc(-c3c[nH]c4ncccc34)cs1)cn2CCCN1CCCCC1")
"-23.7% (active)"
>>> reported("CN(C)c1cccc2[nH]c(-c3[nH]ncc3Nc3ccnc(N)n3)nc12")
"-1.92% (active)"
>>> reported("CC(=O)OCCCCCCn1c2ccccc2c2c3c(c4c5ccccc5n(C)c4c21)C(=O)N(O)C3=O")
"74.9% (inactive)"
>>> reported("C[C@H]1OC(=O)/C=C/[C@@H](O)[C@@H](O)CCCCCCCC[C@@H]1O")
"100% (inactive)"

Field: growth. Fill in for each record below.
1. Cc1ccc(Nc2c(C(N)=O)cnc3ccc(S(=O)(=O)Nc4cc(C)on4)cc23)cc1
2. Cc1ccnc2c(OCc3ccccc3)cccc12
3. Cc1ccc(S(=O)(=O)Nc2ccc(-c3cc(-c4cccc(F)c4)c(C#N)c(=O)[nH]3)cc2)cc1

Response:
89.2% (inactive)
89.3% (inactive)
91.3% (inactive)

Field: growth. Fill in for each record below.
1. CCOC(=O)C/C(=C\c1ccccc1)C(C)=O
2. C#CCN=C[C@]12CC[C@@H](C(=C)C)[C@@H]1[C@H]1CC[C@@H]3[C@@]4(C)CCC(=O)C(C)(C)[C@@H]4CC[C@@]3(C)[C@]1(C)CC2
3. N#CC1=C(N)Oc2c(c(N)nn2-c2ccccc2)C1c1ccc(Cl)cc1Cl (stereo not drawn)
4. O=[N+]([O-])c1cc(S(=O)(=O)c2ccc(F)c([N+](=O)[O-])c2)ccc1F
5. C#CCn1c2c(c3ccccc31)C[C@]1(C)[C@H]3CC[C@@H]4[C@@H]5C(=CCC[C@H]5C(=C)C)CC[C@@]4(C)[C@]3(C)CC[C@H]1C2(C)C
6. CC(C)(C)c1ccc(OP(=S)(N/N=C/c2ccccc2O)Oc2ccc(C(C)(C)C)cc2)cc1
7. N#CC1c2ccccc2-c2ccccc2N1C(=O)c1ccccc1 (stereo not drawn)

Response:
["107% (inactive)", "75.7% (inactive)", "99% (inactive)", "97.1% (inactive)", "99.2% (inactive)", "87.7% (inactive)", "30.1% (inactive)"]

Field: growth. Fill in for each record below.
1. COC(=O)[C@]12CC[C@@H](C)[C@H](C)[C@@H]1C1=CC[C@@H]3[C@@]4(C)C[C@@H](OC(C)=O)[C@H](O)[C@@](C)(CO)[C@@H]4[C@H](O)C[C@@]3(C)[C@]1(C)CC2
2. CN1CCN(CCOc2ccc(-c3cnc4c(-c5ccccc5F)cnn4c3)cc2)CC1
3. O=C1c2cc3c(cc2-c2c1c1ccc(F)cc1c(=O)n2CCCN1CCOCC1)OCO3
4. COc1cnc2c(c1)C(=O)c1c-2n(CCCNC(C)C)c(=O)c2cc([N+](=O)[O-])ccc12

Response:
-88.3% (active)
55.7% (inactive)
4.58% (active)
-84.5% (active)
